Test system: P388 leukemia ip, CD2F1 mice, survival T/C
Assay: NCI In Vivo Anticancer Drug Screen. Data for tumor model P388 Leukemia (intraperitoneal) in CD2F1 (CDF1) mice
Conditions: endpoint: median survival time; dose: 200.0 mg/kg/injection; schedule: Q01DX009 (ip); vehicle: other; higher = longer survival
Inconclusive results and toxic doses are left out.
Please go through the items and note down their T/C.

Problem: Identify T/C associated with the compound `NC(=O)Oc1cccc(OC(N)=O)c1`
Result: 113 % of control

Problem: Identify T/C associated with the compound `CCOC(=O)CCCCc1cccc2ccccc12`
Result: 107 % of control

Problem: Identify T/C associated with the compound `Nc1ccc(Cl)cc1N`
Result: 105 % of control

Problem: Identify T/C associated with the compound `O=[N+]([O-])c1ccc(S(=O)(=O)Nc2ccc(-c3ccccc3)cc2)cc1`
Result: 100 % of control

Problem: Identify T/C associated with the compound `CCOC(=O)CC(=O)Nc1cc2ccc(OC)c(OC)c2cc1C(=O)OCC`
Result: 87 % of control

Problem: Identify T/C associated with the compound `[Cl][Pt+2][Cl].[NH-]C1CCCCCCC1.[NH-]C1CCCCCCC1`
Result: 108 % of control

Problem: Identify T/C associated with the compound `C[Si](C)(C)N([Si](C)(C)C)[Si](C)(C)C`
Result: 100 % of control

====

System: P388 leukemia ip, CD2F1 mice, survival T/C
Experiment: NCI In Vivo Anticancer Drug Screen. Data for tumor model P388 Leukemia (intraperitoneal) in CD2F1 (CDF1) mice
Details: endpoint: median survival time; dose: 400.0 mg/kg/injection; schedule: Q01DX001 (ip); vehicle: saline; higher = longer survival
Inconclusive results and toxic doses are left out.
readout: T/C

Problem: Identify T/C associated with the compound `O=C(CBr)c1cc2ccccc2[nH]1`
Result: 106 % of control

Problem: Identify T/C associated with the compound `O=C1c2ccccc2-c2nc3ccccc3n21`
Result: 106 % of control

Problem: Identify T/C associated with the compound `O=C(c1ccc(O)cc1)c1ccc(O)cc1O`
Result: 100 % of control

Problem: Identify T/C associated with the compound N#CCCCCC/C=C/CCCCCCC1C=CCC1 (centres undefined)
Result: 96 % of control

Problem: Identify T/C associated with the compound `Nc1ncnc2nc(-c3ccc(OCc4ccccc4)cc3)[nH]c12`
Result: 98 % of control

Problem: Identify T/C associated with the compound COC(=O)CC1(C(=O)OC)C2CCCN2C2(C#N)c3ccccc3CCC12Br (centres undefined)
Result: 104 % of control

Problem: Identify T/C associated with the compound `O=C1CSCc2nc3ccccc3n21`
Result: 104 % of control

Problem: Identify T/C associated with the compound C=C1CC2(CC(C(C)C)CCC2C)OC1=O (centres undefined)
Result: 105 % of control

Problem: Identify T/C associated with the compound Cc1ccc(NC2OC(CO)C(O)C2O)c([N+](=O)[O-])c1 (centres undefined)
Result: 99 % of control

====

Tested on: P388 leukemia ip, CD2F1 mice, survival T/C
Test: NCI In Vivo Anticancer Drug Screen. Data for tumor model P388 Leukemia (intraperitoneal) in CD2F1 (CDF1) mice
Settings: endpoint: median survival time; dose: 400.0 mg/kg/injection; schedule: Q04DX003 (ip); vehicle: saline; higher = longer survival
Inconclusive results and toxic doses are left out. Square brackets hold non-standard residues; d marks the D form. Peptide text beside a SMILES is read from it. ξ: configuration not given here. ξY = NC(Cc1ccc(O)cc1)C(=O)O
readout: T/C

Problem: Identify T/C associated with the compound `O=[N+]([O-])c1ccc2c(N=Nc3c(O)ccc4ccccc34)c(O)cc(S(=O)(=O)O)c2c1`
Result: 111 % of control

Problem: Identify T/C associated with the compound `Cc1cnc(C)n2cnnc12`
Result: 98 % of control

Problem: Identify T/C associated with the compound NCC(=O)NC(Cc1ccc(O)cc1)C(=O)O (stereo unspecified) (H-Gly-[ξY]-OH)
Result: 104 % of control

Problem: Identify T/C associated with the compound `Brc1nc(-[n+]2ccccc2)[n-]c1Br`
Result: 100 % of control

Problem: Identify T/C associated with the compound `O=[N+]([O-])c1ccc(N=Nc2ccc(O)cc2O)cc1`
Result: 115 % of control

Problem: Identify T/C associated with the compound `CN(C)C(=C1C=CC=C/C1=N/S(=O)(=O)c1ccccc1)N(C)C`
Result: 105 % of control

Problem: Identify T/C associated with the compound `COC(=O)/C=C1\C(=O)OCC1(C)C`
Result: 103 % of control

Problem: Identify T/C associated with the compound `S=C(Nc1ccc(N=Nc2ccccc2)cc1)SCc1ccccc1`
Result: 91 % of control

Problem: Identify T/C associated with the compound `O=C1CNC(=O)N1CCO`
Result: 104 % of control

Problem: Identify T/C associated with the compound OCC1OC(n2cnc3cncnc32)C(O)C1O (stereo unspecified)
Result: 104 % of control

Problem: Identify T/C associated with the compound `CCCCCCCCC(=O)CC`
Result: 95 % of control
